Taken from PubChem BioAssay AID2060906.

system: 485176-168-R4-J1-PDC complex spheroid growth; assay: Anticancer human tumor 485176-168-R4-J1-PDC patient-derived pancreatic adenocarcinoma cell line growth inhibition [RAS]; conditions: curve of first compound; second compound 0.0949 µM;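 also: spheroids exposed to compounds for seven days before readout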
MEASUREMENT LABEL: IC50 (nM)

Worked cases, IC50 given:
1. O=C(c1ccc(F)c(F)c1Nc1ccc(I)cc1F)N1CC(O)([C@@H]2CCCCN2)C1 + CCn1c(-c2cc(N3CCN(C)CC3)cnc2C(C)OC)c2c3cc(ccc31)-c1csc(n1)CC(NC(=O)C1CC1C)C(=O)N1CCCC(N1)C(=O)OCC(C)(C)C2
14.5
2. CC(Nc1ccc2c(c1)OCCn1cc(N3C(=O)OCC3C(F)F)nc1-2)C(N)=O (stereo not drawn) + CCn1c(-c2cc(N3CCN(C)CC3)cnc2C(C)OC)c2c3cc(ccc31)-c1csc(n1)CC(NC(=O)C1CC1C)C(=O)N1CCCC(N1)C(=O)OCC(C)(C)C2
2110

[A] CC(C)n1nc(-c2ccc3oc(N)nc3c2)c2c(N)ncnc21 + CCn1c(-c2cc(N3CCN(C)CC3)cnc2C(C)OC)c2c3cc(ccc31)-c1csc(n1)CC(NC(=O)C1CC1C)C(=O)N1CCCC(N1)C(=O)OCC(C)(C)C2
[B] C[C@@H](NC(=O)c1ncnc(N)c1Cl)c1ncc(C(=O)Nc2cc(C(F)(F)F)c(Cl)cn2)s1 + CCn1c(-c2cc(N3CCN(C)CC3)cnc2C(C)OC)c2c3cc(ccc31)-c1csc(n1)CC(NC(=O)C1CC1C)C(=O)N1CCCC(N1)C(=O)OCC(C)(C)C2
[C] CC(C)NCC(C(=O)N1CCN(c2ncnc3c2C(C)CC3O)CC1)c1ccc(Cl)cc1 (stereo not drawn) + CCn1c(-c2cc(N3CCN(C)CC3)cnc2C(C)OC)c2c3cc(ccc31)-c1csc(n1)CC(NC(=O)C1CC1C)C(=O)N1CCCC(N1)C(=O)OCC(C)(C)C2
[D] CCc1c2c(nc3ccc(O)cc13)-c1cc3c(c(=O)n1C2)COC(=O)[C@]3(O)CC + CCn1c(-c2cccnc2C(C)OC)c2c3cc(ccc31)N1CCOC(CC(NC(=O)C(C(C)C)N(C)C(=O)C3(F)CCN(C(=O)C#CC(C)(C)N(C)C)CC3)C(=O)N3CCCC(N3)C(=O)OCC(C)(C)C2)C1
INPUT: Order these by IC50, descending, and give the full ranking. Answer by naming the labels in the order asked.
OUTPUT: B, C, A, D
(B: 2380 nM, C: 721 nM, A: 10.9 nM, D: 6.74 nM)
